Data origin, for the record: paper PMC3261944

target: ER (Homo sapiens); construct: This cell line was stably transfected with the luciferase reporter gene and estrogen-responsive element derived from the Xenopus vitellogenin A2 gene; endogenous in cells; host or cells: MVLN cells (provided by J.P. Giesy); test: MVLN assay (estrogen-responsive luciferase reporter transactivation); type: cell-based; settings: luciferase activity, 2 days; from Hill slope and EC50
Sequence (P03372 whole entry): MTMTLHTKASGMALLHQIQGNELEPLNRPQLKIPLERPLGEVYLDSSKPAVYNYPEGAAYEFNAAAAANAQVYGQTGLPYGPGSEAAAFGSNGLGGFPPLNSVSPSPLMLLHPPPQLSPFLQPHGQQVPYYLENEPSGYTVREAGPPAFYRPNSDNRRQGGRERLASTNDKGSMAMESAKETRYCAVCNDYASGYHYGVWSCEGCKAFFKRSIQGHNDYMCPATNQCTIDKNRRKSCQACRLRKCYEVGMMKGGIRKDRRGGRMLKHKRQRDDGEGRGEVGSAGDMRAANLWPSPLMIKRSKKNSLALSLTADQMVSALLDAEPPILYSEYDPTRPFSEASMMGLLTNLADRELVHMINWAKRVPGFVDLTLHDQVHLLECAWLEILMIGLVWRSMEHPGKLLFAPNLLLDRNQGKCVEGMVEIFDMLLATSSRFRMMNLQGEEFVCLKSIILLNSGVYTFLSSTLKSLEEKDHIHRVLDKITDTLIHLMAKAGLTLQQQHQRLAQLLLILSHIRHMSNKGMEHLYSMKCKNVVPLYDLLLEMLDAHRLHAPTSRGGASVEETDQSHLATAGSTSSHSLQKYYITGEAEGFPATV
MVLN assay EC20 below 1 µM gives Not fulfilled; MVLN assay EC20 at or above it gives Fulfilled.

These recorded examples may help you get a feel for the data.
Compound: FC(F)(I)C(F)(F)C(F)(F)C(F)(F)C(F)(F)C(F)(F)I [PFHxDI, Dodecafluoro-1,6-diiodohexane]
Assigned class: Not fulfilled

Compound: FC(F)(F)C(F)(F)C(F)(F)C(F)(F)C(F)(F)C(F)(F)I [PFHxI, 1-iodoperfluorohexane]
Assigned class: Fulfilled

Compound: FC(F)(F)C(F)(F)C(F)(F)C(F)(F)C(F)(F)C(F)(F)C(F)(F)C(F)(F)I [PFOI, 1-iodoperfluorooctane]
Assigned class: Fulfilled

Compound: FC(F)(I)C(F)(F)C(F)(F)C(F)(F)C(F)(F)C(F)(F)C(F)(F)C(F)(F)I [PFODI, Hexadecafluoro-1,8-diiodooctane]
Assigned class: Fulfilled

Assess whether reported MVLN assay EC20 for FC(F)(I)C(F)(F)C(F)(F)C(F)(F)I [PFBDI, Octafluoro-1,4-diiodobutane] sits at 1 µM or higher. Fulfilled
